Origin of values: ChEMBL document CHEMBL6127013

Reported values of IC50 for individual entries
Biological target: Centromere-associated protein E (Homo sapiens, UniProt Q02224)
Sequence (Q02224 whole entry): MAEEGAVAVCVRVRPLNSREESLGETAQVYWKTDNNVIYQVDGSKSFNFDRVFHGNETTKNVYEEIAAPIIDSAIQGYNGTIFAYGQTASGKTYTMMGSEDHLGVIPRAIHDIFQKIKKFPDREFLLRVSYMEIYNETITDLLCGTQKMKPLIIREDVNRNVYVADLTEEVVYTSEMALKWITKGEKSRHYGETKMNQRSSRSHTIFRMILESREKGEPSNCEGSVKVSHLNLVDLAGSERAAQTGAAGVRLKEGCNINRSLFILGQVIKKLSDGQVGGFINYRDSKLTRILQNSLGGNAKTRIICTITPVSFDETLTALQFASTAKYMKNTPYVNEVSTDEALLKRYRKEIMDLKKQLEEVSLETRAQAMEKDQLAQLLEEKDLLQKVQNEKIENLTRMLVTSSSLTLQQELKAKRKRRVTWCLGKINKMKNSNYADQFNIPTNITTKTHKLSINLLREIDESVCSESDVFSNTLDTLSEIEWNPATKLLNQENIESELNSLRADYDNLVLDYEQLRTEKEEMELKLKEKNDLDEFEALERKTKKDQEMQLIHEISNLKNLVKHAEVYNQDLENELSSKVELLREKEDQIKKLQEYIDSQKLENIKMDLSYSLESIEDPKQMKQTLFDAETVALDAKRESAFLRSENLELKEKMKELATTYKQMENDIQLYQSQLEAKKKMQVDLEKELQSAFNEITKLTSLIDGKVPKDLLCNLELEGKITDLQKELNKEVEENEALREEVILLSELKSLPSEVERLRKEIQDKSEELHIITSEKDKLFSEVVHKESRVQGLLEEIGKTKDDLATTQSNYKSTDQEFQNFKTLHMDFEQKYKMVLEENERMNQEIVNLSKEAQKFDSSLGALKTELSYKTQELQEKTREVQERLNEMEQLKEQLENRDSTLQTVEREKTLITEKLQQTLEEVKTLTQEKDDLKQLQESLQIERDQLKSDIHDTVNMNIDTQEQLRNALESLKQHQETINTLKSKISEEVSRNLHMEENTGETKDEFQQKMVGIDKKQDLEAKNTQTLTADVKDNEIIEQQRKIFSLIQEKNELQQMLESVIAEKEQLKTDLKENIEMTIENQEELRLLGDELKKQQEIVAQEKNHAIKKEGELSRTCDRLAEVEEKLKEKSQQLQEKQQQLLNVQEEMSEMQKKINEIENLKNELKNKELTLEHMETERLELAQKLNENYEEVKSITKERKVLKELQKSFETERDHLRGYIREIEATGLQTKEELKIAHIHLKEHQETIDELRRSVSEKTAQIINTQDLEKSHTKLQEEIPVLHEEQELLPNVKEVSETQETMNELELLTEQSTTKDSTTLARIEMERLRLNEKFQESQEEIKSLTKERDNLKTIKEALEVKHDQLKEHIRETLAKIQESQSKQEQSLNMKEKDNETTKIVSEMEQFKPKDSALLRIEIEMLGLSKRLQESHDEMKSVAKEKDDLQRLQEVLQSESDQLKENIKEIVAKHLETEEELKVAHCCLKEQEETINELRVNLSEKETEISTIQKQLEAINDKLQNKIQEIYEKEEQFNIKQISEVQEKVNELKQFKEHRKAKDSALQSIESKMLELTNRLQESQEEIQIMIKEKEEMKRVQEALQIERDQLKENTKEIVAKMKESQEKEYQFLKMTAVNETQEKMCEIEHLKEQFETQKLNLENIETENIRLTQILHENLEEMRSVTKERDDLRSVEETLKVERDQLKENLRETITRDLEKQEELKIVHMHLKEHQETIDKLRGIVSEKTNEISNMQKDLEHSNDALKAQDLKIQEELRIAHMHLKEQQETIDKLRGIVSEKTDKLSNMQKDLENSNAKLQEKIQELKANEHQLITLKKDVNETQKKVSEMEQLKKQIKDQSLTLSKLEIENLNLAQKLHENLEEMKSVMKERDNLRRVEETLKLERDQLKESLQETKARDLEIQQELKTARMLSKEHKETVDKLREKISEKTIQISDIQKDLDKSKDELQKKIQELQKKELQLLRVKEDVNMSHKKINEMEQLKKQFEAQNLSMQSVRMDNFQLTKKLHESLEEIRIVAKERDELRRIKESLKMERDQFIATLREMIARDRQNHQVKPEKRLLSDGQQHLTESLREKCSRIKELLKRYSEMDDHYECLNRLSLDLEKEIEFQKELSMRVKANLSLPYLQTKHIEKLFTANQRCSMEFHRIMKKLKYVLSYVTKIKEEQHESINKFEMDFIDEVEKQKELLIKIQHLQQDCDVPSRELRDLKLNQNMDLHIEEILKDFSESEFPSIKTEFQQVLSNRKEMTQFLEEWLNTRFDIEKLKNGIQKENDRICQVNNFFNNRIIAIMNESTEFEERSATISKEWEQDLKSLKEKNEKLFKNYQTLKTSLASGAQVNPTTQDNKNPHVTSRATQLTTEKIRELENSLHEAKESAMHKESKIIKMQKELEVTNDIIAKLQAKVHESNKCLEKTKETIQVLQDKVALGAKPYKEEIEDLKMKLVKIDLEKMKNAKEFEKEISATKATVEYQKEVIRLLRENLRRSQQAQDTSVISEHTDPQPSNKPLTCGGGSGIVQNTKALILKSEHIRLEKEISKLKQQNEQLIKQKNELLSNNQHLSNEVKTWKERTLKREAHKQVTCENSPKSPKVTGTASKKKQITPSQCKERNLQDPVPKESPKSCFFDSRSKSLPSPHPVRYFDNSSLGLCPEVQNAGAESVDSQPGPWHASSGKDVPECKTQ
Experiment: Inhibition of CENP-E (unknown origin) ATPase activity in presence 365 nm of light illumination

chemical_structure	value_units	measurement_qualifier	IC50
CNC(=O)[C@H](Cc1ccc(/N=N/c2c(C)nn(-c3ccc(F)cc3F)c2C)cc1)NC(=O)c1ccc(OC(C)C)c(Cl)c1	nM	>	501
CNC(=O)[C@H](Cc1ccc(/N=N/c2c(C)nn(C)c2C)cc1)NC(=O)c1ccc(OC(C)C)c(Cl)c1	nM	=	372
CNC(=O)[C@H](Cc1ccc(/N=N/c2c(C)nn(Cc3ccccc3)c2C)cc1)NC(=O)c1ccc(OC(C)C)c(Cl)c1	nM	>	501
CNC(=O)[C@H](Cc1ccc(/N=N/c2c(C)nn(C(C)C)c2C)cc1)NC(=O)c1ccc(OC(C)C)c(Cl)c1	nM	=	158
CNC(=O)[C@H](Cc1ccc(/N=N/c2c(C)nn(C(=O)OC)c2C)cc1)NC(=O)c1ccc(OC(C)C)c(Cl)c1	nM	>	501
CNC(=O)[C@H](Cc1ccc(/N=N/c2c(C)nn(C3CCCCC3)c2C)cc1)NC(=O)c1ccc(OC(C)C)c(Cl)c1	nM	=	97.7
CNC(=O)[C@H](Cc1ccc(/N=N/c2c(C)nn(C(=O)c3ccccc3)c2C)cc1)NC(=O)c1ccc(OC(C)C)c(Cl)c1	nM	=	129
